molecules and their reported pKi
- targetOfAssay: Prothrombin (Homo sapiens, UniProt P00734)
pKi: −log10 of the molar value.

Consider the following illustrative entries.
Nc1nccc2cc(N[C@H]3C(=O)NCc4cccc(c4)NC(=O)CCCc4ccc3cc4)ccc12 = < 4.89
CC(C)S(=O)(=O)c1ccc2cc1CNC(=O)[C@H](Nc1ccc3c(N)nccc3c1)c1ccc(cc1)CCCC(=O)N2 = 5.40

// next entry
Query :: So what pKi did CC(C)(C)S(=O)(=O)c1ccc2cc1CNC(=O)C(Nc1ccc3c(N)nccc3c1)c1ccc(cc1)CCCC(=O)N2 (racemic) get with Prothrombin (Homo sapiens, UniProt P00734)?
Result :: < 4.89

---

- targetOfAssay: UniProtKB P06870
- Sequence (P06870 whole entry): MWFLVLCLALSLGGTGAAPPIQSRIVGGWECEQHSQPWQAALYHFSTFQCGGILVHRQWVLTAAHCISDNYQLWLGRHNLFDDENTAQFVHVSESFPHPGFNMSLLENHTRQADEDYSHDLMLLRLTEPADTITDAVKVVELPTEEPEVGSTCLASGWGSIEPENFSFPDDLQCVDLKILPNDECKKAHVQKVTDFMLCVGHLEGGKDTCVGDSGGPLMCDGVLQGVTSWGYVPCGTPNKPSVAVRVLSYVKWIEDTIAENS
- experimentDescription: Inhibition of human tissue kallikrein 1 measured for 30 mins
We begin with a simple list: items and their reported pKi.
Scale note: pKi = -log10(concentration in M).

CCS(=O)(=O)c1ccc2cc1CNC(=O)[C@H](Nc1ccc(C(=N)N)cc1)c1ccc(cc1)CCCC(=O)N2 = 5.72
CCS(=O)(=O)c1ccc2cc1CNC(=O)[C@H](Nc1ccc3c(N)nccc3c1)c1ccc(cc1)CCCC(=O)N2 = 7.00

Now for another entry.
Query :: Form field - read-out: pKi; system: UniProtKB P06870; submitted item: CCS(=O)(=O)c1ccc2cc1CNC(=O)[C@H](Nc1ccc3c(N)nccc3c1)c1ccc(c(C)c1)CCCC(=O)N2
Result :: 7.00

---

Quick reference: Ki of the listed items.
- targetOfAssay: Plasma kallikrein (Homo sapiens)
- Sequence (P03952 20-390 limits assumed): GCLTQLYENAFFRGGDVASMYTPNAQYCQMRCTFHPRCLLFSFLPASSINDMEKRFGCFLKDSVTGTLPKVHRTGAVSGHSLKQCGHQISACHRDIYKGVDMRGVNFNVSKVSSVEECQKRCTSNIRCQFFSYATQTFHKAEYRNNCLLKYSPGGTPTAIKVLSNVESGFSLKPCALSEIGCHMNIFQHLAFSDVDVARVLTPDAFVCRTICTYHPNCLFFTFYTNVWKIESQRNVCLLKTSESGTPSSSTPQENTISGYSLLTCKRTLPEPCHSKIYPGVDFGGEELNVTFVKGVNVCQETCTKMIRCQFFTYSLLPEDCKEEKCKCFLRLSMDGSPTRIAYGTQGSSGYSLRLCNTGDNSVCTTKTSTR
- Sequence (P03952 391-638 limits assumed): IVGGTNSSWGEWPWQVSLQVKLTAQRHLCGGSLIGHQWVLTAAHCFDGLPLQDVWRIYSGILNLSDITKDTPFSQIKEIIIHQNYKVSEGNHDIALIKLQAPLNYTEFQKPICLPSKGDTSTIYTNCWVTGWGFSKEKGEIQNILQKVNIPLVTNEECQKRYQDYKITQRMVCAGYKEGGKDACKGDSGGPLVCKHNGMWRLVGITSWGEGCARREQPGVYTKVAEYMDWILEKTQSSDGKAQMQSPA
- experimentDescription: Inhibition of human plasma kallikrein using S2302 as substrate measured for 30 mins
The response must be a number in µM with no trailing unit.

Below, 3 compounds whose answers are already recorded.
CCS(=O)(=O)c1ccc2cc1CNC(=O)[C@H](Nc1ccc(C(=N)N)cc1)c1ccc(cc1)CCCC(=O)N2 = 0.05
CCS(=O)(=O)c1ccc2cc1CNC(=O)[C@H](Nc1ccc3c(N)nccc3c1)c1ccc(c(C)c1)CCCC(=O)N2 = 1.7
CC(C)S(=O)(=O)c1ccc2cc1CNC(=O)[C@H](Nc1ccc3c(N)nccc3c1)c1ccc(cc1)CCCC(=O)N2 = 3.6

Query :: If you can, please state the reported Ki value of CCS(=O)(=O)c1ccc2cc1CNC(=O)[C@H](Nc1ccc3c(N)nccc3c1)c1ccc(cc1)CCCC(=O)N2 .
Result :: 4.6

---

The molecules below have reported Ki for UniProtKB P04070.
Sequence (P04070 43-197 limits assumed): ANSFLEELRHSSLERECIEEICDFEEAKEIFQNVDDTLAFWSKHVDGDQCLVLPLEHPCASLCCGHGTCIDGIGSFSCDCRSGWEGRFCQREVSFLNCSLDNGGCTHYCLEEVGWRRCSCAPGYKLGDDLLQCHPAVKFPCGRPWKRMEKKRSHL
Sequence (P04070 212-461 limits assumed): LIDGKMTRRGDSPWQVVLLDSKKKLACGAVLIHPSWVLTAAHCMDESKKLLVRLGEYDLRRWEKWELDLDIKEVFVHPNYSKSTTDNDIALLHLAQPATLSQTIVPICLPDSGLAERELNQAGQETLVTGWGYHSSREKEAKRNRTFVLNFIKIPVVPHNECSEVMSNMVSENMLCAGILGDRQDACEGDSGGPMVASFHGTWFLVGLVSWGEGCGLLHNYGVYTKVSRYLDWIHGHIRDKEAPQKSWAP
I only need the number, in µM, no unit after it.

CC(C)S(=O)(=O)c1ccc2cc1CNC(=O)[C@H](Nc1ccc3c(N)nccc3c1)c1ccc(cc1)CCCC(=O)N2 = 1.8

Please turn your attention to the following entry.
Query :: Give recorded Ki with UniProtKB P04070 for the following molecule: CCS(=O)(=O)c1ccc2cc1CNC(=O)[C@H](Nc1ccc3c(N)nccc3c1)c1ccc(cc1)CCCC(=O)N2
Result :: 1.3

---

- targetOfAssay: Coagulation factor VII/tissue factor (Homo sapiens, UniProt P08709)
- Sequence (P08709 61-212 limits assumed): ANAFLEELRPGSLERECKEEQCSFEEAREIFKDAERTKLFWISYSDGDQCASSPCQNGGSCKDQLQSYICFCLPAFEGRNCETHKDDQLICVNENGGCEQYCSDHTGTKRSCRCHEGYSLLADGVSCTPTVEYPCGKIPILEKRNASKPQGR
- Sequence (P08709 213-466 limits assumed): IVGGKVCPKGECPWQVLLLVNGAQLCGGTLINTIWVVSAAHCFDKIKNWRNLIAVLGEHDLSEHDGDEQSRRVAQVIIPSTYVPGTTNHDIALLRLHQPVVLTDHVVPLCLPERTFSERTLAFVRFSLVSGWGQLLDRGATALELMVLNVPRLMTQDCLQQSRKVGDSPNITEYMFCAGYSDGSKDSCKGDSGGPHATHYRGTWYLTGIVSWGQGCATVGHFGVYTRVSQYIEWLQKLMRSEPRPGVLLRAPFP
- Sequence (P13726 33-295 partner limits assumed): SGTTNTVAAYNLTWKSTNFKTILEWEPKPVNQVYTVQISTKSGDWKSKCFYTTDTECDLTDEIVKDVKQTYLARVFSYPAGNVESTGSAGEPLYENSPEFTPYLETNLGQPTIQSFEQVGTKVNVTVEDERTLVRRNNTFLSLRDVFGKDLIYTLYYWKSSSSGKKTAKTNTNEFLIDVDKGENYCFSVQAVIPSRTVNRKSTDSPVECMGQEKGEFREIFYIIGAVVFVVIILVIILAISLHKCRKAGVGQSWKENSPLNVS
- experimentDescription: Inhibition of human recombinant TF/F7a complex using S2288 as substrate preincubated for 15 mins followed by protein addition measured for 60 mins
measuredQuantity: Ki (nM)
The reply should contain only the number, in nM.

Solved entries (count: 2):
CC(C)(C)S(=O)(=O)c1ccc2cc1CNC(=O)C(Nc1ccc3c(N)nccc3c1)c1ccc(cc1)CCCC(=O)N2 (racemic) = 30
Nc1nccc2cc(NC(C(=O)NCc3ccccc3)c3ccccc3)ccc12 (centres undefined) = 54000

Attention now shifts to the item below.
Query :: For the compound shown here, CCS(=O)(=O)c1ccc2cc1CNC(=O)[C@H](Nc1ccc3c(N)nccc3c1)c1ccc(c(C)c1)CCCC(=O)N2 , give the reported Ki.
Result :: 1.6

Reference for the values: ChEMBL document CHEMBL3593168
